# TARGET_OR_TEST_SYSTEM: T1, recombinant human GPC3 protein (human, UniProt P51654 25-563)
# T1 construct: also called human GPC3 full-length protein; recombinant GPC3 protein
# TEST_METHOD_NOTES: BLI (Octet), antibody on Protein A probe
READOUT_TYPE: kon (M⁻¹ s⁻¹)
The reply should contain only the number, in M⁻¹ s⁻¹.

42A1 (antibody, V domains shown, Chimeric human IgG1) VH: QVQLQQSGAELVRPGASVKLSCKALGYTFADYEIHWVKQTPVHGLEWIGAIHPGSGGTAYSQTFKGKATLTADKSSTTAYMELSSLTSEDSAVYYCTRYFSFAYWGQGTLVTVSA VL: DVVVTQTPLSLPVSLGDQASISCRSSQSLVHSNGNTYLHWYLQKPGQSPKLLIYKVSNRFSGVPDRFSGSGSGTDFTLKISRVEAEDLGVYFCSQSTHAPYTFGGGTRLEIK :: 60000
29A10 (antibody, V domains shown, Chimeric human IgG1) VH: EVQLQQSGAELVRPGASVKLSCKALGYTFADYEIHWVKQTPVHGLEWIGAIHPGSGGTAYNQTFKGKATLTADKSSTTAYMELSSLTSEDSAVYYCTRYYSFAYWGQGTLVTVSA VL: DVVMTQTPLSLPVSLGDQASISCRSSQSLVHSNGNTYLHWYLQKPGQSPKLLIYKVSNRFSGVPDRFSGSGSGTDFTLKISRVEAEDLGVYFCSQSTHVPLTFGAGTKLEIK :: 142000
19F1 (antibody, V domains shown, Chimeric human IgG1) VH: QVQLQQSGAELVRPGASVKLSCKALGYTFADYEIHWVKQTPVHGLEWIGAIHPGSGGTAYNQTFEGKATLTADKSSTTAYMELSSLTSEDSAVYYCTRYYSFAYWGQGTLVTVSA VL: DVLMTQTPLSLPVSLGDQASISCRSSQSLVHSNGNTYLHWYLQKPGQSPKLLIYKVSNRFSGVPDRFSGSGSGTDFTLKISRVEAEDLGVYFCSQSTHIPTFGGGTKLELK :: 116000

Notebook: 34H1 (antibody, V domains shown, Chimeric human IgG1) VH: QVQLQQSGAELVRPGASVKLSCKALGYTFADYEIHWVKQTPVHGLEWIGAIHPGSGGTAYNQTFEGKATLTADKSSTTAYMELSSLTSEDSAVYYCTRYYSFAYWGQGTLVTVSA VL: DVVMTQTPLSLPVSLGDQASISCRSSQSLVHSNGNTYLHWYLQKPGQSPKLLIYKVSNRFSGVPDRFSGSGSGTDFTLKISRVEAEDLGVYFCSQSIHVPLTFGAGTKLELK , kon read as 171000

Notebook: 30A4 (antibody, V domains shown, Chimeric human IgG1) VH: QVQLQQSGAELVRPGASVKLSCKALGYAFADYEIHWVKQTPVHGLEWIGAIHPGSGGTAYNQTFKGKATLTADKSSTTAYMELSSLTSEDSAVYYCTRYYSFAYWGQGTLVTVSA VL: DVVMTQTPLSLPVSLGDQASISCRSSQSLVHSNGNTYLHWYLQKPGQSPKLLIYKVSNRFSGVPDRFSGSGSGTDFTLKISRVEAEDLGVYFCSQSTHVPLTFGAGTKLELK , kon read as 130000
